Source of measurements: ChEMBL document CHEMBL1201862

As shown below, each of these compounds has a reported GI50 value.
system: HCC 2998; assay: NCI tumour cell line growth inhibition, 48 h
Active and inactive are the calls of the source. Cut-off read from the data, not from the text of the source: active = GI50 up to about 1.1 µM and inactive = higher.

compound: OCc1c2c(cc3c1CC1(C3)Cc3cc4c(c(CO)c3C1)CCC4)CCC2
GI50: 17.5 µM (inactive)

compound: C[C@@H]1CC[C@]2(C(=O)O)CC[C@]3(C)C(=CC[C@@H]4[C@@]5(C)CC[C@H](O)C(C)(C)[C@@H]5CC[C@]43C)[C@@H]2[C@]1(C)O [POMOLIC ACID]
GI50: 15 µM (inactive)

compound: S=C(S)NCNC(=S)S
GI50: > 100 µM (inactive)

compound: [O-][S+](c1ccc(O)cc1)c1ccc(O)cc1
GI50: > 100 µM (inactive)

compound: Cc1cc(NS(=O)(=O)c2ccc(NC(=O)c3cccc4c(Nc5ccc(S(N)(=O)=O)cc5)c5ccccc5nc34)cc2)no1
GI50: > 100 µM (inactive)

compound: Cc1c2c(c(C)n1-c1ccccc1)C(=O)N(CCN1CCN(c3cccc(C(F)(F)F)c3)CC1)C2=O
GI50: 97.5 µM (inactive)

compound: CCOP(=O)(OCC)C1CCCOC1=O (stereo not given)
GI50: > 100 µM (inactive)

compound: O=C(OCc1ccccc1CN1CCOCC1)c1cccc(Br)c1
GI50: 28.3 µM (inactive)

compound: O=[N+]([O-])C1C2C=CC(C2)[C@H]1c1ccco1 (stereo not given in full)
GI50: > 100 µM (inactive)

compound: COc1ccc(/C=C/C(C(=O)O)C(=O)O)cc1
GI50: > 100 µM (inactive)

----------
As shown below, each of these compounds has a reported GI50 value.
system: DLD-1; test: NCI tumour cell line growth inhibition, 48 h
Activity calls are given as the source filed them. No stated cut-off is given here; in the data, active = GI50 up to about 1.1 µM and inactive = higher.

compound: COc1nc(OC)nc(Sc2ccc(Sc3ccc(Sc4nc(OC)nc(OC)n4)cc3)cc2)n1
GI50: > 100 µM (inactive)

compound: Cn1cnc([N+](=O)[O-])c1Sc1nnnn1-c1ccccc1
GI50: 6.68 µM (inactive)

compound: Cc1cccc(C(C)C)c1NC(=O)CCl
GI50: 65 µM (inactive)

compound: N#CC(Cl)CS(=O)(=O)c1ccccc1 (stereo not given)
GI50: 1.93 µM (inactive)

compound: Oc1cc(-c2cccc(Cl)c2)nc2cc3c(cc12)OCO3
GI50: 0.245 µM (active)

compound: CC(=O)N1CCC2(C=Nc3ccccc32)CC1
GI50: > 100 µM (inactive)

compound: CC(=O)O[C@@H]1CC[C@@]2(C)C(=O)C34C[C@@]5(C)C([C@@H](C)CCCC(C)C)CCC5(C)[C@](O)(O3)C(=O)[C@H]4C2C1(C)C (stereo not given in full)
GI50: 18 µM (inactive)

compound: N#CCCOCN(CO)c1nc(N(CO)COCCC#N)nc(N(CO)COCCC#N)n1
GI50: 26.7 µM (inactive)

compound: CC1=C(C(=O)Nc2ccccc2)C(c2ccc(N(C)C)cc2)C(C(=O)Nc2ccccc2)=C(C)N1
GI50: 8.36 µM (inactive)

compound: O=C(CN1CCN(c2ccccc2)CC1)N1CCc2c([nH]c3ccccc23)C1c1cccnc1 (stereo not given)
GI50: > 53 µM (inactive)

compound: Nc1nc(O)c2c(ncn2CC(O)CO)n1 (stereo not given)
GI50: > 100 µM (inactive)

compound: COc1cc2c(cc1Oc1ccc(OC)c3c1CC1c4c(cc(OC)c(OC)c4-3)CCN1C)CC1c3c(cc(OC)c(OC)c3-2)CCN1C (stereo not given)
GI50: 2.23 µM (inactive)

compound: COC(=O)C(=O)C(C(=O)C(=O)Nc1ccc([N+](=O)[O-])cc1)c1nc2ccccc2nc1O (stereo not given)
GI50: > 100 µM (inactive)

compound: CC(=O)n1c(=O)c2cc3c(=O)n(-c4cccc(C#N)c4)c(=O)c3cc2c1=O
GI50: > 100 µM (inactive)

compound: COc1cc2c(cc1OC)C(C1(O)CCCCC1)NCC2 (stereo not given)
GI50: > 100 µM (inactive)

compound: Cc1ccc(NC(=O)/C(Cl)=C(/Cl)C(=O)O)cc1
GI50: 16.4 µM (inactive)

compound: Clc1ccc(-c2nnc(-c3nn(-c4ccccc4)c4nc5ccccc5nc34)o2)cc1
GI50: 18.9 µM (inactive)

compound: C=C1CC(CCCl)(c2ccccc2)OC1=O (stereo not given)
GI50: 20.1 µM (inactive)

compound: c1cncc(CSc2nc3ccccc3nc2-c2cccs2)c1
GI50: > 100 µM (inactive)

compound: Cc1cc(Br)ccc1/N=N/C1C(=O)ON=C1c1ccccc1 (stereo not given)
GI50: 90.2 µM (inactive)
